Values from patent US20240294623A1

Below, each entry is listed with its recorded pKd.
- test-target: T1, hGARP-proTGFβ1 (human, UniProt Q14392 18-627; P01137 30-390, limits assumed)
- T1 construct: LLC as m1; Same id used for the cell-surface complex in reporter assays; also called human GARP-proTGFβ1 complex; GARP-ProTGFb1
- T1 sequence (Q14392 18-627 limits assumed, chain 1 of 2): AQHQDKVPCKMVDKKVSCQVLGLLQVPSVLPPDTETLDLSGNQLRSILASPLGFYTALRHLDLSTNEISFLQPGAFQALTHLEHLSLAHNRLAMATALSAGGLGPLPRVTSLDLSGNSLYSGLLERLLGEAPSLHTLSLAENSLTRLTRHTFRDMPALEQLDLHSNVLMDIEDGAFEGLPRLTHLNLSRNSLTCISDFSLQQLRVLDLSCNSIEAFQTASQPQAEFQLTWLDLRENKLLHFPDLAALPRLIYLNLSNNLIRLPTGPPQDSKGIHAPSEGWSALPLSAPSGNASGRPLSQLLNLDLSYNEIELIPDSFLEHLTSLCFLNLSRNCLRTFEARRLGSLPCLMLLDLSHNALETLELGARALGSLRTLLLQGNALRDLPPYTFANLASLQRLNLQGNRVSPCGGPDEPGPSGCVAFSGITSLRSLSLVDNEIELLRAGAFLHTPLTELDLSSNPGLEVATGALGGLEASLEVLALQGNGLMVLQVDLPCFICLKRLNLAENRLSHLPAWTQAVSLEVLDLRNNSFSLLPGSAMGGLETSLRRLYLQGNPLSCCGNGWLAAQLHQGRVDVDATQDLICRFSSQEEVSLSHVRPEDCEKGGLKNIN
- T1 sequence (P01137 30-390 limits assumed, chain 2 of 2): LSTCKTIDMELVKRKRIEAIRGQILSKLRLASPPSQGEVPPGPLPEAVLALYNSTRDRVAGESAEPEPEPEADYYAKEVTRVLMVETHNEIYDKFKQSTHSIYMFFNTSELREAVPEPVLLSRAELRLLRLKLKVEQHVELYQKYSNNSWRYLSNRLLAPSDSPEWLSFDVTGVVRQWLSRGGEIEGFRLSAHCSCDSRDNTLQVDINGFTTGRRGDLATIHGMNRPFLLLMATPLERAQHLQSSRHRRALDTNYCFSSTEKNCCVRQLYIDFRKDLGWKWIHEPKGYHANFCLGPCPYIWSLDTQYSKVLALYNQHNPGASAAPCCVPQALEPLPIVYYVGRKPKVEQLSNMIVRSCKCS
- protocol-details: BLI (Octet)
pKd: −log10 of the molar value.
quantity: pKd

binder="Ab33 (antibody, V domains shown) VH: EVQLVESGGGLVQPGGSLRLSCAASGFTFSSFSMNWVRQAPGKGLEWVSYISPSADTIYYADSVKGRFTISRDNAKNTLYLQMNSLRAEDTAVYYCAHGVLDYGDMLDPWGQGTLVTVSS VL: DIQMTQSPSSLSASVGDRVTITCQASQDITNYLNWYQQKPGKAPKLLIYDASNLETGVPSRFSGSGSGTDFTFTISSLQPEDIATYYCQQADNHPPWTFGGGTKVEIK" quantity=pKd readout_number=9.58
binder="Ab31 (antibody, V domains shown) VH: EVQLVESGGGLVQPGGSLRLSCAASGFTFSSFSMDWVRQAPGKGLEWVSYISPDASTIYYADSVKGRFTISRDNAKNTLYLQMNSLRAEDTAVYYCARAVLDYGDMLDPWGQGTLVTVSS VL: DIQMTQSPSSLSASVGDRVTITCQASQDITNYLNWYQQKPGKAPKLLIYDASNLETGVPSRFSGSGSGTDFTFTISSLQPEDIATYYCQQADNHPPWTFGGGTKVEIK" quantity=pKd readout_number=9.24
binder="Ab32 (antibody, V domains shown) VH: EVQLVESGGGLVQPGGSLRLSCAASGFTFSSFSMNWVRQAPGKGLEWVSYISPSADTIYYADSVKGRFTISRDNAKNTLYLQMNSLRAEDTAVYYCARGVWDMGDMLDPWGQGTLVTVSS VL: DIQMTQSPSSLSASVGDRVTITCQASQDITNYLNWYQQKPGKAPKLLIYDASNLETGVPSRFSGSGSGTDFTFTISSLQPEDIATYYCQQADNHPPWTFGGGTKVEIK" quantity=pKd readout_number=9.30
binder="Ab21 (antibody, V domains shown) VH: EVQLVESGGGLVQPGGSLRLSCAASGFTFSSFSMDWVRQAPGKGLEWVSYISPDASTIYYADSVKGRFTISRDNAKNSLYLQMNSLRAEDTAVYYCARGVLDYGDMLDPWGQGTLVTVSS VL: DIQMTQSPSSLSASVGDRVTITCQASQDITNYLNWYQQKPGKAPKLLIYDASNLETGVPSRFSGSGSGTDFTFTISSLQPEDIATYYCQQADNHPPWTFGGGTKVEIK" quantity=pKd readout_number=9.08
binder="Ab29 (antibody, V domains shown) VH: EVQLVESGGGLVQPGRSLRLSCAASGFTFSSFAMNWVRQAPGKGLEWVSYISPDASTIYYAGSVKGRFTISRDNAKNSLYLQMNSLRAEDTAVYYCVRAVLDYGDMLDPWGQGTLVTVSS VL: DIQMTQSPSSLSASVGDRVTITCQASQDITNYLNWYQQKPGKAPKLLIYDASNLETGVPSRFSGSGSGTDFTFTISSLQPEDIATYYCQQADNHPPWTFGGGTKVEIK" quantity=pKd readout_number=9.51
binder="Ab24 (antibody, V domains shown) VH: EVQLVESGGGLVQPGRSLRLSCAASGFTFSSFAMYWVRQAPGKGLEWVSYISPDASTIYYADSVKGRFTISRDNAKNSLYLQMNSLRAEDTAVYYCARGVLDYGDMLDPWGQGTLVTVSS VL: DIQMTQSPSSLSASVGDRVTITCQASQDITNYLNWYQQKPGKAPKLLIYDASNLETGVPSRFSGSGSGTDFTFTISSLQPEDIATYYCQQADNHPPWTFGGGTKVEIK" quantity=pKd readout_number=9.18
